System: SW-620 colon
Assay: NCI-60 one-dose screen, 48 h (100 = growth as untreated, 0 = no growth, -100 = all killed)
Details: 10 µM unless noted
The panel holds about 83,000 compounds, 20% with a hit somewhere; the sample as a whole holds those more often.
outcome_measure: growth (%)
Report the figure in % without appending any unit label.

{"columns": ["compound", "scale_unit", "growth"],
 "data": [
  ["CC1=Nc2cnc(Nc3ccc(OCCN4CCCC4)cc3)nc2Nc2ccccc21", "%", 68.4]
]}

Prompt: For the compound shown here, CC(C)NC1CCC(Nc2ccnc3cc(Cl)ccc23)CC1 (stereo not given) , give the reported growth.
Completion: 91.7

Prompt: Return reported growth; argument: COc1ccc(OC)c(-c2c(C#N)c(-c3cccs3)nc3c2c(-c2ccccc2)nn3-c2ccccc2)c1
Completion: 93.9

Prompt: Report growth for COc1ccc2[nH]cc(-c3nc(-c4c[nH]c5ccncc45)cs3)c2c1 please.
Completion: -61.4

Prompt: Name the recorded growth for Oc1c(Cl)cc(Cl)c2ccc(Cn3cc(-c4cc(C(F)(F)F)cc(C(F)(F)F)c4)nn3)nc12 .
Completion: 4.61

Prompt: Given the entry O=C(Nc1nc2ccc(F)cc2s1)c1cccnc1Nc1ccc(Cl)cc1 , report its measured growth.
Completion: 49.8

Prompt: Look at this compound and give its reported growth. COc1cc(-c2csc(NC(=O)c3cc(-n4cnc(C)c4)cc(C(F)(F)F)c3)n2)cc(OC)c1OC
Completion: 77.9

Prompt: What does the record list as growth for Cc1nc2c(=O)[nH]c(SCC(=O)Nc3cccc(F)c3)nc2[nH]c1=O ?
Completion: 101

Prompt: # query: growth of entry Cc1ccc(-c2cc(-c3ccc(Cl)cc3)nc(NC(=O)c3cccnc3)n2)cc1
Completion: 102

Prompt: Sample O=C1/C(=C/c2ccc(F)cc2)COc2ccc(O)c(O)c21 — what was its growth?
Completion: -44.8

----------
Entries and their measured growth follow.
Test system: SR leukemia
Experiment: NCI-60 one-dose screen, 48 h (100 = growth as untreated, 0 = no growth, -100 = all killed)
Details: 10 µM unless noted
About 83,000 compounds went through this panel and 20% of them were active in at least one assay; those are over-represented in the sample as a whole.
Numeric only. Scale: %

// solved cases for growth follow
{"columns": ["compound", "growth / %"],
 "data": [
  ["CCN(c1ccc(Cl)cc1)c1nc(-c2ccc([N+](=O)[O-])cc2)cs1", 83.4],
  ["O=C(OCc1ccc2c(Cl)cc(Cl)c(O)c2n1)n1cncn1", 23.1],
  ["COC(=O)CNC(=O)[C@H](Cc1ccccc1)NCc1ccncc1", 97],
  ["COCCNC(=O)c1ccc(-c2nc3ccc4[nH]ncc4c3c3c2CCCC3)cc1", 5.46],
  ["COc1ccccc1NC(=O)Cn1cc(CN2CCN(c3ccnc4cc(Cl)ccc34)CC2)nn1", 92.1],
  ["O=C(c1ccc(-c2ccccc2)cc1)c1ccc([N+](=O)[O-])cc1", 86.8]
]}

Prompt: # returns recorded growth (system: SR leukemia) for O=C(/C=C(/C=C/c1cccc2[nH]ccc12)OB(F)F)/C=C/c1cccc2[nH]ccc12
Completion: 3.72

Prompt: Request - read-out growth | tested on SR leukemia | compound O=C(Cn1c2c(c3ccccc31)CCCC2)Nc1ccc(-c2nc3ccccc3s2)cc1
Completion: 88.8

Prompt: Report growth for COC(=O)c1c2c(c(C)[n+]([O-])c1C)C(=O)C(NCc1ccc(Cl)cc1)=CC2=O tested on SR leukemia.
Completion: 48.6

Prompt: State its growth on SR leukemia: C=C1CC[C@@H]2[C@](C)(COC(C)=O)[C@H](OC(C)=O)CC[C@@]2(C)[C@@H]1CC(Sc1ccccc1)C1=CCOC1=O (some centres undefined)
Completion: 2.9

Prompt: Recorded growth for O=S(=O)(NCCNc1cc(-c2c(-c3cccc(O)c3)nc3sccn23)ccn1)c1ccc(C(F)(F)F)cc1 with SR leukemia, please?
Completion: 19.6

Prompt: Could you share what growth was measured for CC(C)(C)n1cc(-c2ccnc(NCCCNS(=O)(=O)c3ccc(F)cc3)c2)c(-c2cccc(F)c2)n1 , tested on SR leukemia?
Completion: 14.3

----------
System: KM12 colon
Assay: NCI-60 one-dose screen, 48 h
Settings: 10 µM unless noted
The panel holds about 83,000 compounds, 20% with a hit somewhere; the sample as a whole holds those more often. Activity calls are given as the source filed them. Rule for the calls: active = growth percent below 10; inactive = the rest.
Output constraint: value belongs to Y (active), N (inactive)

Prompt: Please share the test call associated with CCCCOC(=O)OCc1cc(=O)c(O)co1 .
Completion: N

Prompt: Give the logged outcome of this assay for the following compound: CC(C)NC1CCC(Nc2ccnc3cc(Cl)ccc23)CC1 (stereo not given)
Completion: N

Prompt: In this assay, the call recorded for Cc1cc2c(O)c(-c3cccc(Cl)c3)c3sc(=O)oc3c2cc1C was what?
Completion: N

----------
Tested on: M14 melanoma
Test: NCI-60 one-dose screen, 48 h
Settings: 10 µM unless noted
Compounds without any hit were thinned out: in the full panel of roughly 83,000, 20% have a hit. Active and inactive are the calls of the source. Rule for the calls: active = growth percent below 10; inactive = the rest.
Permitted responses: yes for active, no for inactive

Recorded results for 5 compounds are shown here.
{"columns": ["compound", "assigned_label"],
 "data": [
  ["CCN(CC)c1ccc(/C=C/C(=O)c2ccc(Nc3nc(Nc4ccccc4)nc(Nc4ccccc4)n3)cc2)cc1", "no"],
  ["COC(=O)c1cc(-c2ccc(OC)cc2)[nH]c1N/N=C/c1c(Cl)cccc1Cl", "yes"],
  ["O=[N+]([O-])c1ccc(S(=O)(=O)N2CCN(C3=NS(=O)(=O)c4ccccc4N3c3ccccc3)CC2)cc1", "no"],
  ["OCCCC1CCN(C(Cc2ccccc2)c2ccccc2)CC1 (stereo not given)", "no"],
  ["O=C1Nc2ccc(I)cc2C1=O", "no"]
]}

Prompt: Assay outcome for COc1cc(-c2nc(SCC(C)C)nc(Nc3cccc4ccccc34)c2C#N)cc(OC)c1OC : what was it?
Completion: no

Prompt: Please share the test call associated with CCOC(=O)c1nc(Nc2ccc(NC(=O)Nc3ccc(F)cc3)cc2)c2ccccc2n1 .
Completion: no

Prompt: What call does the record list for O=C(Nc1cccc([N+](=O)[O-])c1)c1cc2ccccc2cc1O ?
Completion: no

Prompt: Fill in: this test's call for CC1(C)CC2=C3C=C[C@@H]4[C@@]5(C)CCC(=O)C(C)(C)[C@@H]5CC[C@@]4(C)[C@]3(C)CC[C@@]2(C(=O)O)CC1=O is ___
Completion: no

Prompt: Called result for N#CC1C=CN(CC(N)=O)c2ccc3cccnc3c21 (stereo not given)
Completion: no

----------
System: MDA-MB-435 melanoma
Test: NCI-60 one-dose screen, 48 h
Conditions: 10 µM unless noted
Compounds without any hit were thinned out: in the full panel of roughly 83,000, 20% have a hit. Activity calls are given as the source filed them. How the source made its calls: active means growth percent below 10; inactive means the rest.
Log the outcome using a class from true = active, false = inactive

{"columns": ["molecule", "assigned_label"],
 "data": [
  ["CO[C@H]1/C=C(/C)CCC[C@H](C)[C@H](O)[C@@H](C)C(=O)C(C)(C)[C@@H](O)CC(=O)O[C@@H]1/C(C)=C/c1csc(C)n1", "true"],
  ["COC(C(=O)[C@@H](O)[C@@H](C)O)[C@@H]1Cc2cc3cc(O[C@H]4C[C@@H](O[C@H]5C[C@@H](O)[C@H](O)C(C)O5)[C@H](O)C(C)O4)cc(O)c3c(O)c2C(=O)[C@H]1O[C@H]1C[C@@H](O[C@H]2C[C@@H](O[C@H]3C[C@@H](OC)[C@H](O)C(C)O3)[C@@H](O)C(C)O2)[C@H](O)C(C)O1 (stereo partly drawn)", "false"],
  ["N#C/C(=C\\c1ccc2ccccc2c1)c1cc2ccccc2[nH]1", "true"],
  ["CN1C(=O)/C(=C/c2cn(-c3ccccc3)nc2-c2ccccc2)SC1=S", "false"],
  ["O=C1NC(=O)c2c1c1c3ccccc3ccc1c1[nH]c3ccc(Br)cc3c21", "false"],
  ["CCCCC(=O)c1ccco1", "false"],
  ["CCCCCCCCCCCCCCCC(N)c1ccccc1 (stereo not drawn)", "true"]
]}

Prompt: Any idea what this test logged for N#CC1=C(N)Oc2c(sc3c(Br)cccc23)C1c1ccc(F)cc1 (stereo not drawn) ?
Completion: true

----------
Test system: HT29 colon
Test: NCI-60 one-dose screen, 48 h (100 = growth as untreated, 0 = no growth, -100 = all killed)
Conditions: 10 µM unless noted
This is part of a sample that, as a whole, favours compounds with a hit. Of some 83,000 tested, about 20% had one in any assay.
satisfied means recorded growth is 40% or above; not satisfied means it is below 40%.

{"columns": ["compound", "assigned_label"],
 "data": [
  ["Cc1cc2c(O)c(-c3cc(Cl)ccc3Cl)c3sc(=O)oc3c2cc1C", "satisfied"]
]}

Now for another entry.
Prompt: Can COc1cc(-c2nc(SCC(C)C)nc(Nc3cccc4ccccc34)c2C#N)cc(OC)c1OC be said to have growth at or above 40%?
Completion: satisfied

All values here come from PubChem BioAssay (NCI).
